- Tested on: Rattus norvegicus
- assay-name: In vivo hypolipidemic activity, expressed as percent decrease in Triglyceride in rat, at dosage of 100 mg for 7 days.
- Format: functional
Decrease values by entry

> print(dat)
                                   compound        test.target  result
1             CCCCOc1ccc(/C=C/C(=O)OCCO)cc1  Rattus norvegicus     26%
2  CCCCCCCCCCCCCCCCOc1ccc(/C=C/C(=O)OCCBr)cc1  Rattus norvegicus      6%
3  CCCCCCCCCCCCCCCCOc1ccc(/C=C/C(=O)OCCCCl)cc1  Rattus norvegicus     44%
4  CCCCCCCCCCCCCCCCOc1ccc(/C=C/C(=O)OCCS(=O)(=O)[O-])cc1.[Na+]  Rattus norvegicus     47%
5  CCOC(=O)C(C)(C)Oc1ccc(Cl)cc1 [CLOFIBRATE]  Rattus norvegicus     41%
6  C/C=C/C(=O)OCCOC(=O)/C=C/c1ccc(OCCCCCCCCCCCCCCCC)cc1  Rattus norvegicus     11%
7  C=C(C)C(=O)OCCOC(=O)/C=C(\C)c1ccc(OCCCCCCCCCCCCCCCC)cc1  Rattus norvegicus     12%
8  CCCCCCCCCCCCCCCCOc1ccc(/C=C/C(=O)OCC(O)CO)cc1 (stereo not given)  Rattus norvegicus     62%
9  C=C(C)C(=O)OCCOC(=O)/C=C/c1ccc(OCCCCCCCCCCCCCCCC)cc1  Rattus norvegicus     65%

Entry CCCCCCCCCCCCCCOc1ccc(/C=C(\C)C(=O)O)cc1 under Rattus norvegicus had Decrease of 45%

* * *

In this section we review reported Decrease values for a set of compounds.
- Organism: Rattus norvegicus
- assay-name: Hypolipidemic activity expressed as percentage decrease in triglyceride in rat, at dosage of 50 mg for 7 days
- Type: functional
Answer format: value, then unit.

compound	Decrease
CCCCCCCCCCOc1ccc(/C=C/C(=O)OCC(O)CO)cc1 (centres undefined)	14%
CCCCCCCCCCCCCCOc1ccc(/C=C/C(=O)OCC(O)CO)cc1 (centres undefined)	24%
CCCCCCCCCCOc1ccc(/C=C(\C)C(=O)O)cc1	43%
CCCCCCCCCCCCCCCCOc1ccc(/C=C(\C)C(=O)OCC(COC(=O)/C(C)=C/c2ccc(OCCCCCCCCCCCCCCCC)cc2)OC(=O)/C(C)=C/c2ccc(OCCCCCCCCCCCCCCCC)cc2)cc1 (centres undefined)	9%
C/C(=C\c1ccc(-c2ccccc2)cc1)C(=O)OCC(O)CO (centres undefined)	-17%
CCCCCCCCCCCCCCOc1ccc(/C=C(\C)C(=O)OCC(O)COC(=O)c2cccnc2)cc1 (centres undefined)	33%
CCCCCCCCCCCCCCCCCCOc1ccc(/C=C(\C)C(=O)OCCCCl)cc1	11%
CCCCCCCCCCCCCCOc1ccc(/C=C(\C)C(=O)OCC(COC(=O)c2cccnc2)OC(=O)c2cccnc2)cc1 (centres undefined)	17%

Per the record, CCCCCCCCOc1ccc(/C=C(\C)C(=O)O)cc1 has Decrease of 8%

* * *

- Tested on: Rattus norvegicus
- assay-name: In vivo hypolipidemic activity, expressed as percent decrease in serum cholesterol in rat, at dosage of 20 mg for 7 days.
- Assay type: functional
Examples of compounds with documented Decrease follow.
State the answer as a number, implicitly in %.

> print(dat)
                                   compound  quantity.unit  numeric.result
1  CCCCCCCCCCCCCCCCOc1ccc(/C=C/C(=O)OCCCCl)cc1              %               1
2        O=C(/C=C/c1ccc(Oc2ccccc2)cc1)OCCCl              %              18
3       O=C(/C=C/c1ccc(Oc2ccccc2)cc1)OCCCCl              %              17

Reported Decrease ( CCCCCCCCCCCCCCCCOc1ccc(/C=C/C(=O)OCCCl)cc1 ) = 17

Lab book: Decrease of C/C(=C\c1ccc(Oc2ccccc2)cc1)C(=O)OCC(O)CO (configuration not stated) noted as 7

In plain terms, CCCCCCCCCCCCOc1ccc(/C=C(\C)C(=O)OCC(O)CO)cc1 (configuration not stated) has a documented Decrease of 16

Briefly, Decrease measured for C=C(C)C(=O)OCCOC(=O)/C(C)=C/c1ccc(OCCCCCCCCCCCCCCCC)cc1 : 13

Data point: CCCCCCCCCCCCCCCCOc1ccc(/C=C(\C)C(=O)OCC(O)CO)cc1 (configuration not stated) ; Decrease = 11

Consider O=C(O)/C=C/c1ccc(Oc2ccccc2)cc1 . Its measured Decrease is 14

Documented Decrease of CCCCCCCCCCCCCCOc1ccc(/C=C(\C)C(=O)O)cc1 : 12

Looking up CCCCCCCCCCCCCCOc1ccc(/C=C(\C)C(=O)OCCC(=O)OC)cc1 , I see its Decrease listed as -1

# Decrease (compound: O=C(/C=C/c1ccc(Oc2ccccc2)cc1)OCC(O)CO (configuration not stated) ) is 15

get_value(item= C/C(=C\c1ccc(Oc2ccccc2)cc1)C(=O)O , readout=Decrease) returns 8

Per the records, this compound ( CCCCCCCCCCCCCCCCOc1ccc(/C=C/C(=O)OCC(O)CO)cc1 (configuration not stated) ) has Decrease equal to 9

The reported Decrease of the compound CCCCCCCCCCCCCCCCOc1ccc(/C=C/C(=O)OCCO)cc1 was 18

The compound identified as CCCCCCCCCCCCCCCCOc1ccc(/C=C/C(=O)O)cc1 registered its Decrease at 2

* * *

- Species on record: Rattus norvegicus
- assay-name: Hypolipidemic activity expressed as percentage decrease in triglyceride in rat, at dosage of 50 mg for 7 days
- Format: functional
property-label: Decrease (%)
Write down the numeric answer in % and omit the unit.

Some solved entries appear below for comparison.
> print(dat)
                                   compound  numeric.result
1  CCCCCCCCOc1ccc(/C=C/C(=O)OCCOC(=O)/C=C/c2ccc(OCCCCCCCC)cc2)cc1               9
2        CCCCCCCCCCCCOc1ccc(/C=C/C(=O)O)cc1              52
3  CCCCCCCCCCCCCCCCOC(=O)/C=C/c1ccc(OCCCCCCCCCCCCCCCC)cc1              27
4  CCCCCCCCCCCCCCCCCCOc1ccc(/C=C/C(=O)OCCCCl)cc1               3
5            O=C(O)/C=C/c1ccc(Oc2ccccc2)cc1              34

API: the following record is the query input.
In plain terms, CCCCCCCCCCOc1ccc(/C=C(\C)C(=O)OCC(O)CO)cc1 (configuration not stated) has a documented Decrease of 52

* * *

- Species on record: Rattus norvegicus
- assay-name: Tested for the hypolipidemic activity, expressed as percent decrease in Triglyceride in rat, at dosage of 100 mg for 6 days by Ryan and Rasho method
- Type: functional
Entries and their Decrease
Dear colleague, please return just the value in %, with no unit written.

Recorded results for 4 molecules are shown here.
> print(dat)
                                   molecule  quantity.unit  numeric.result
1  CCCCOc1ccc(/C=C/C(=O)OCC(O)CO)cc1 (stereo not given)              %              15
2  CCCCCCCCOc1ccc(/C=C/C(=O)OCC(O)CO)cc1 (stereo not given)              %              15
3       O=C(/C=C/c1ccc(Oc2ccccc2)cc1)OCCCCl              %              54
4  COc1ccc(/C=C/C(=O)OCC(O)CO)cc1 (stereo not given)              %              31

Reported Decrease of O=C(/C=C/c1ccccc1)OCC(O)CO (stereo not given) : 16

* * *

Entries and their measured Decrease follow.
- Species on record: Rattus norvegicus
- assay-name: Hypolipidemic activity, expressed as percent decrease in serum cholesterol in rat, at dosage of 100 mg for 7 days by Zak et al method
- Format: functional
Write it as a number; the unit % goes unstated.

Below, each entry is followed by its recorded Decrease result.
> print(dat)
                            compound.string  property.label  quantity.unit  numeric.result
1  C=C(C)C(=O)OCCCOC(=O)/C=C/c1ccc(OCCCCCCCCCCCCCCCC)cc1        Decrease              %              16
2  CCCCCCCCCCCCCCCCOc1ccc(/C=C/C(=O)OCCCCl)cc1        Decrease              %              22
3       O=C(/C=C/c1ccc(OCc2ccccc2)cc1)OCCCl        Decrease              %              -3
4  CCCCCCCCCCCCCCCCOc1ccc(/C=C/C(=O)OCCBr)cc1        Decrease              %               7
5  C=C(C)C(=O)OCCOC(=O)/C=C/c1ccc(OCc2ccccc2)cc1        Decrease              %              13

Looking up C=C(C)C(=O)OCCOC(=O)/C=C/c1ccc(OCCCCCCCCCCCCCCCC)cc1 , I see its Decrease listed as 27

The compound listed as CCCCCCCCOc1ccc(/C=C/C(=O)OCCCl)cc1 has a reported Decrease of 5

Lab note: measured Decrease of C=CC(=O)OCCOC(=O)/C=C/c1ccc(OCCCCCCCCCCCCCCCC)cc1 was 6

Entry CCCCCCCCCCCCCCOc1ccc(/C=C(\C)C(=O)O)cc1 — recorded Decrease = 16

Measured Decrease of CCCCOc1ccc(/C=C/C(=O)OCCO)cc1 : 9

The reported value for CCCCOc1ccc(/C=C/C(=O)OCCBr)cc1 in terms of Decrease is 9
